Kindly state max response for each of the entries shown.
Assay: Cycloheximide Counterscreen for Small Molecule Inhibitors of Shiga Toxin; note: read at 38.3 µM for the half of the compounds with a filed dose; 0% is about no effect
Conditions: cell reporter, cycloheximide protein synthesis inhibition counterscreen; hits give high values
About 37,000 (12%) of roughly 300,000 compounds were called active. For the sample, actives were picked, then their nearest neighbours and some compounds at random.

Task item: Item CS(=O)(=O)c1ccc(Cl)c(NC(=O)Nc2ccccc2)c1 has what recorded max response?
Reply: -1.05% (inactive)

Task item: Item Cc1cc(=O)oc2cc(OC(C)C(=O)NCCc3ccc(S(N)(=O)=O)cc3)ccc12 (stereo unspecified) has what recorded max response?
Reply: -2.25% (inactive)

Task item: Name the recorded max response for Cc1ccc(NC(=O)Nc2ccccc2)c(Br)c1 .
Reply: 64.5% (active)

Task item: Looking for the measured max response of COCC1CCN(C(=O)c2ccc3oc(Cc4ccccc4)nc3c2)C1 (stereo unspecified) , can you help?
Reply: 39.1% (active)

Task item: // max response lookup, key: C=CCN(c1ccccc1C(=O)NCC(=O)OCC)S(=O)(=O)c1ccc(C)cc1
Reply: -3.9% (inactive)

Task item: // max response lookup, key: CCOc1ccc(Nc2oc(Cc3ccccc3)nc2C#N)cc1
Reply: 31.6% (active)

Task item: Which max response value belongs to OC(c1nc2ccc(F)cc2[nH]1)C(O)c1nc2ccc(F)cc2[nH]1 (stereo unspecified) ?
Reply: -0.936% (inactive)

Task item: // max response lookup, key: Cc1ccccc1-c1nc(C#N)c(NCc2ccco2)o1
Reply: 8.49% (inactive)

Task item: I would be grateful if you could share the reported max response for N#Cc1nc(Cc2ccccc2)oc1NCCc1ccccc1 .
Reply: 39.2% (active)

Task item: // lookup max response for CCOc1cc(NC(=O)Nc2ccccc2)c(OCC)cc1NC(=O)CC
Reply: -3.19% (inactive)

Task item: # input compound: CCN1CCC(=NNC(=O)c2ccc(C)c([N+](=O)[O-])c2)CC1 ; wanted: its max response
Reply: -3.08% (inactive)
